System: SUDIPGVI (diffuse intrinsic pontine glioma line)
Method: growth inhibition (% activity, log2 RLU normalised to DMSO / staurosporine); higher = more growth inhibition
Experimental setup: 33 µM
Here the recorded growth inhibition is given for each entry.
State the answer as a number, implicitly in %.

Would you please look over these solved cases?
- Compound: "CN1CCN(C2=Nc3cc(Cl)ccc3Nc3ccccc32)CC1"
  Test system: "SUDIPGVI"
  Val: -5.31
- Compound: "CC(CN(C)C)CN1c2ccccc2CCc2ccccc21 (configuration not stated)"
  Test system: "SUDIPGVI"
  Val: 0.808
- Compound: "C[C@]12CCC3=C4CCC(=O)C=C4CC[C@H]3[C@@H]1CC[C@@]2(O)CC#N"
  Test system: "SUDIPGVI"
  Val: 1.03
- Compound: "CS(=O)(=O)c1ccc([C@@H](O)[C@@H](CO)NC(=O)C(Cl)Cl)cc1"
  Test system: "SUDIPGVI"
  Val: 5.62
- Compound: "CN(N=O)C(=O)N[C@H]1C(O)O[C@H](CO)[C@@H](O)[C@@H]1O (mixture of isomers)"
  Test system: "SUDIPGVI"
  Val: 2.34
- Compound: "CC(C)(C#N)c1cc(Cn2cncn2)cc(C(C)(C)C#N)c1"
  Test system: "SUDIPGVI"
  Val: 2.45
- Compound: "C[C@]12C=CC(=O)C=C1CC[C@@H]1[C@@H]2C(=O)C[C@@]2(C)[C@H]1CC[C@]2(O)C(=O)CO"
  Test system: "SUDIPGVI"
  Val: -6.66
- Compound: "CCn1cc(C(=O)O)c(=O)c2cc(F)c(N3CCN(C)CC3)cc21"
  Test system: "SUDIPGVI"
  Val: 1.27
- Compound: "O=C[C@H](O)[C@@H](O)[C@H](O)CO"
  Test system: "SUDIPGVI"
  Val: -1.35
- Compound: "O=C(O)[C@H](CC(=O)N1C[C@H]2CCCC[C@H]2C1)Cc1ccccc1"
  Test system: "SUDIPGVI"
  Val: 1.16

Could you share which growth inhibition value was measured for CCOC(CN1CCN(CC(C)C(=O)c2ccccc2)CC1)c1ccccc1 (configuration not stated) ?
-0.901

Same again, this time with COc1ccc(C(=O)CC(=O)c2ccc(C(C)(C)C)cc2)cc1
-2.64

Same again, this time with CCNC(=O)CCC/C=C\C[C@@H]1[C@@H](/C=C/[C@@H](O)CCc2ccccc2)[C@H](O)C[C@@H]1O
0.646

Same again, this time with O=C1O[C@H]([C@@H](O)CO)C(O)=C1O
-0.209

Same again, this time with O=C(O)c1cn(C2CC2)c2cc(N3CCNCC3)c(F)cc2c1=O
-2.88

Same again, this time with C[C@]12CC[C@@H]3c4ccc(O)cc4CC[C@H]3[C@@H]1CC[C@@H]2O
-3.66

Same again, this time with CN(Cc1cc(Br)cc(Br)c1N)C1CCCCC1
3.03

Same again, this time with Nc1ccc(O)c(C(=O)O)c1
1.92

Same again, this time with COc1cc(C(=O)NS(=O)(=O)c2ccccc2C)ccc1Cc1cn(C)c2ccc(NC(=O)OC3CCCC3)cc12
1.76

Same again, this time with N=C(N)NS(=O)(=O)c1ccc(N)cc1
1.1

Same again, this time with CC(C)NCC(O)c1ccc(NS(C)(=O)=O)cc1 (configuration not stated)
2.59

Same again, this time with Cc1ccc(-c2cc(C(F)(F)F)nn2-c2ccc(S(N)(=O)=O)cc2)cc1
1.64

Same again, this time with Cc1ccnc2c1NC(=O)c1cccnc1N2C1CC1
0.484

Same again, this time with CC[C@H]1OC(=O)[C@H](C)[C@@H](O[C@H]2C[C@@](C)(OC)[C@@H](O)[C@H](C)O2)[C@H](C)[C@@H](O[C@@H]2O[C@H](C)C[C@H](N(C)C)[C@H]2O)[C@](C)(O)C[C@@H](C)[C@@H]2N[C@@H](COCCOC)O[C@H]([C@H]2C)[C@]1(C)O
-0.768

Same again, this time with NCCS(=O)(=O)O
0.882

###

Test system: DIPGX7 (H3.3 K27M diffuse intrinsic pontine glioma line)
Method: growth inhibition (% activity, log2 RLU normalised to DMSO / staurosporine); higher = more growth inhibition
Experimental setup: 33 µM
Here the recorded growth inhibition is given for each entry.
Quote the value and follow it with the unit of measurement.

- Compound: "CC1(C)[C@@H](OC(=O)CCC(=O)O)CC[C@]2(C)[C@H]3C(=O)C=C4[C@@H]5C[C@@](C)(C(=O)O)CC[C@]5(C)CC[C@@]4(C)[C@]3(C)CC[C@@H]12"
  growth inhibition: "-0.476%"

Could you share which growth inhibition value was measured for Cc1cc(-n2c(=O)[nH]c(=O)n(C)c2=O)ccc1Oc1ccc(SC(F)(F)F)cc1 ?
3.64%

Same again, this time with NCCCC[C@H](N[C@@H](CCc1ccccc1)C(=O)O)C(=O)N1CCC[C@H]1C(=O)O
-0.813%

Same again, this time with O=S(=O)(O)CCS
-0.101%

Same again, this time with CCCOc1ccc2[nH]c(NC(=O)OC)nc2c1
6.31%

Same again, this time with C[C@@H](c1ncncc1F)[C@](O)(Cn1cncn1)c1ccc(F)cc1F
0.392%

Same again, this time with Cc1cc(C#N)cc(C)c1Oc1nc(Nc2ccc(C#N)cc2)nc(N)c1Br
9.93%

Same again, this time with CCN(CC)CCOC(=O)C1(C2CCCCC2)CCCCC1
-1.55%

Same again, this time with Cc1ccnc(NS(=O)(=O)c2ccc(N)cc2)n1
-0.936%

Same again, this time with COc1cc2nc(N(C)CCCNC(=O)C3CCCO3)nc(N)c2cc1OC (centres undefined)
-0.0243%

Same again, this time with OCC(CO)N[C@H]1C[C@](O)(CO)[C@@H](O)[C@H](O)[C@H]1O
-1.4%

Same again, this time with C[C@@H](O)[C@H]1C(=O)N2C(C(=O)[O-])=C(SC3Cn4cnc[n+]4C3)[C@H](C)[C@H]12 (some centres undefined)
-0.736%

Same again, this time with COc1ccc(-c2nc3ccc(C4=NNC(=O)CC4C)cc3[nH]2)cc1 (centres undefined)
1.98%

Same again, this time with c1ccc2c(c1)CCCC2C1=NCCN1 (centres undefined)
1.62%

Same again, this time with Cc1[nH]c(=O)c(C#N)cc1-c1ccncc1
1.37%

Same again, this time with CC(=O)OCC(=O)[C@@]1(O)[C@H](C)C[C@H]2[C@@H]3CCC4=CC(=O)C=C[C@]4(C)[C@@]3(F)[C@@H](O)C[C@@]21C
1.89%

Same again, this time with Fc1ccc([C@@H]2CCNC[C@H]2COc2ccc3c(c2)OCO3)cc1
1.44%

Same again, this time with COc1cc2nc(N3CCN(C(=O)C4COc5ccccc5O4)CC3)nc(N)c2cc1OC (centres undefined)
1.34%

Same again, this time with O=C(O)CCCC[C@@H]1SC[C@@H]2NC(=O)N[C@@H]21
0.534%

Same again, this time with CN[C@@H]1[C@H](O)[C@H](NC)[C@H]2O[C@@]3(O)C(=O)C[C@@H](C)O[C@H]3O[C@@H]2[C@H]1O
0.532%

Same again, this time with Cc1ccc(C(=O)C(C)CN2CCCCC2)cc1 (centres undefined)
0.522%

Same again, this time with COc1c(N2CCNC(C)C2)c(F)cc2c(=O)c(C(=O)O)cn(C3CC3)c12 (centres undefined)
2.3%

Same again, this time with CCc1cc(C(N)=S)ccn1
-0.907%

Same again, this time with CN1CCN2c3ncccc3Cc3ccccc3C2C1 (centres undefined)
-0.7%

###

Tested on: DIPGX37 (H3.3 K27M diffuse intrinsic pontine glioma line)
Method: growth inhibition (% activity, log2 RLU normalised to DMSO / staurosporine); higher = more growth inhibition
Experimental setup: 33 µM
Measured parameter: growth inhibition (%)
State the answer as a number, implicitly in %.

- Structure as smiles: "CCOC(=O)[C@H](CCc1ccccc1)N[C@@H](C)C(=O)N1CCC[C@H]1C(=O)O"
  growth inhibition (%): -8.18
- Structure as smiles: "CNCCc1ccccn1"
  growth inhibition (%): 1.45
- Structure as smiles: "CN(C)C(=O)C(CCN1CCC(O)(c2ccc(Cl)cc2)CC1)(c1ccccc1)c1ccccc1"
  growth inhibition (%): 3.96

Now let's try a different one.
Could you share which growth inhibition value was measured for C[C@@H]1CC(=O)NN=C1c1ccc(NN=C(C#N)C#N)cc1 ?
-0.996

###

Tested on: DIPGX9 (diffuse intrinsic pontine glioma line)
Method: growth inhibition (% activity, log2 RLU normalised to DMSO / staurosporine); higher = more growth inhibition
Experimental setup: 33 µM
Measured parameter: growth inhibition (%)
State the answer as a number, implicitly in %.

- Compound: "CC(C)n1c(/C=C/[C@@H](O)C[C@@H](O)CC(=O)O)c(-c2ccc(F)cc2)c2ccccc21"
  Readout units: "%"
  growth inhibition: 6.39
- Compound: "CN(C)CCN(Cc1ccccc1)c1ccccn1"
  Readout units: "%"
  growth inhibition: 3.36
- Compound: "Cc1cccc(C)c1OCC(C)N (configuration not stated)"
  Readout units: "%"
  growth inhibition: -1.51
- Compound: "O=C1O[C@H]([C@@H](O)CO)C([O-])=C1O.[Na+]"
  Readout units: "%"
  growth inhibition: -4
- Compound: "C[C@@H]1C[C@H]2[C@@H]3CCC4=CC(=O)C=C[C@]4(C)[C@@]3(Cl)[C@@H](O)C[C@]2(C)[C@@]1(OC(=O)c1ccco1)C(=O)CCl"
  Readout units: "%"
  growth inhibition: 5.3

Could you share which growth inhibition value was measured for CC(C)(C)CC(C)(C)c1ccc(O)c(Cc2ccc(Cl)cc2Cl)c1 ?
0.915

Same again, this time with COc1cc(/C=C/C(=O)N2CCN(CC(=O)N3CCCC3)CC2)cc(OC)c1OC
-0.784
